Recorded measurements of Ki, one per entry
- MEASURED TARGET: Amine oxidase [flavin-containing] A (Rattus norvegicus, UniProt P21396)
- Sequence (P21396 whole entry): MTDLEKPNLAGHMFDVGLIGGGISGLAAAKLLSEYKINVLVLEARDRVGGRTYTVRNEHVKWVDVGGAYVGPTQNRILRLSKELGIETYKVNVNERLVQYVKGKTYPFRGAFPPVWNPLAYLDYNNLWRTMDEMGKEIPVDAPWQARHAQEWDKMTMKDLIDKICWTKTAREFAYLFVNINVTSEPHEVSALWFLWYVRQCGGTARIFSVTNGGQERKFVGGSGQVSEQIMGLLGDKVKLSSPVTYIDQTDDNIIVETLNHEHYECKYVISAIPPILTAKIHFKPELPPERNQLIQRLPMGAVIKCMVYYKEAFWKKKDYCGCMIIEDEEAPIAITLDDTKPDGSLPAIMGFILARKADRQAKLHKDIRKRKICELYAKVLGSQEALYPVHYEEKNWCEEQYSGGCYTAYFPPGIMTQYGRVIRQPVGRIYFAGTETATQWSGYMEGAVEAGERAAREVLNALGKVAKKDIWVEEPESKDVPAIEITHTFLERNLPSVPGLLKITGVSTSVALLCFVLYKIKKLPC
- METHOD NOTES: Inhibition of MAO-A in rat liver homogenate by spectrophotometry-based Holt method
- Assay type: tissue-based
Dear colleague, please return just the value in µM, with no unit written.

Examples from the recorded data:
| MOLECULE | MEASURED TARGET | MEASUREMENT UNITS | Ki |
| --- | --- | --- | --- |
| Oc1ccccc1C1=NNC(c2ccccc2O)C1 (centres undefined) | Amine oxidase [flavin-containing] A (Rattus norvegicus, UniProt P21396) | µM | 3.7 |
| Oc1ccc(C2CC(c3ccccc3O)=NN2)cc1 (centres undefined) | Amine oxidase [flavin-containing] A (Rattus norvegicus, UniProt P21396) | µM | 3.9 |

stdin: Find the measured Ki of N=C(NO)N1N=C(c2ccccc2O)CC1c1ccc(O)cc1 (centres undefined) and report it.
stdout: 10.6

stdin: Find the measured Ki of O=C(c1ccccc1)N1N=C(c2ccccc2O)CC1c1ccccc1O (centres undefined) and report it.
stdout: 0.8

----------
- MEASURED TARGET: Amine oxidase [flavin-containing] B (Rattus norvegicus)
- METHOD NOTES: Inhibition of MAO-B in rat liver homogenate by spectrophotometry-based Holt method
- Format: tissue-based
Recorded measurements of Ki, one per entry
Answer by giving the amount and then stating its unit.

stdin: Find the measured Ki of Oc1ccc(C2CC(c3ccccc3O)=NN2)cc1 (centres undefined) and report it.
stdout: 0.6 µM

----------
Recorded measurements of pKi, one per entry
- MEASURED TARGET: Amine oxidase [flavin-containing] B (Rattus norvegicus)
- Sequence (P19643 whole entry): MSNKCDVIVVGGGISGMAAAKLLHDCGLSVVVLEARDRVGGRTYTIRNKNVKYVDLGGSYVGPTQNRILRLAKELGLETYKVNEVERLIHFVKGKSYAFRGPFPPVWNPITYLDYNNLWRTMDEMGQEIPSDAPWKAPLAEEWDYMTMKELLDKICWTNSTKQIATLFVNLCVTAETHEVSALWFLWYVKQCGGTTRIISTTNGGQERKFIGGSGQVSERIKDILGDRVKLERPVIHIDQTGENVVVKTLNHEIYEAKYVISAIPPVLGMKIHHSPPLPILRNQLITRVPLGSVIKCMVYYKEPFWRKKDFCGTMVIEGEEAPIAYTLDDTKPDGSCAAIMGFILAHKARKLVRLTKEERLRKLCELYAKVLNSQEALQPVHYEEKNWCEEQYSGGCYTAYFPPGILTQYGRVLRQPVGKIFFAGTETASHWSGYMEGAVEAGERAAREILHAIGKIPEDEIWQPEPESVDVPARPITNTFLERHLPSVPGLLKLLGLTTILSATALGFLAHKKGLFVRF
By convention, pKi is the negative base-10 log of a molar concentration.

Examples from the recorded data:
| COMPOUND | pKi |
| --- | --- |
| O=C(c1ccccc1)N1N=C(c2ccccc2O)CC1c1ccc(O)cc1 (stereo not drawn) | 1.69 |
| N=C(NO)N1N=C(c2ccccc2O)CC1c1ccc(O)cc1 (stereo not drawn) | 3.68 |

Note: attention shifts to another entry.
stdin: Find the measured pKi of Oc1ccccc1C1=NNC(c2ccccc2O)C1 (stereo not drawn) and report it.
stdout: 6.11

# credit: ChEMBL document CHEMBL1153160
